- assayed-system: T1, murine GPC3-his protein (murine, UniProt Q8CFZ4 25-558, limits assumed)
- T1 construct: Bought protein; also called mouse GPC3 protein; murine GPC3 protein; not shown: His tag
- T1 sequence (Q8CFZ4 25-558 limits assumed): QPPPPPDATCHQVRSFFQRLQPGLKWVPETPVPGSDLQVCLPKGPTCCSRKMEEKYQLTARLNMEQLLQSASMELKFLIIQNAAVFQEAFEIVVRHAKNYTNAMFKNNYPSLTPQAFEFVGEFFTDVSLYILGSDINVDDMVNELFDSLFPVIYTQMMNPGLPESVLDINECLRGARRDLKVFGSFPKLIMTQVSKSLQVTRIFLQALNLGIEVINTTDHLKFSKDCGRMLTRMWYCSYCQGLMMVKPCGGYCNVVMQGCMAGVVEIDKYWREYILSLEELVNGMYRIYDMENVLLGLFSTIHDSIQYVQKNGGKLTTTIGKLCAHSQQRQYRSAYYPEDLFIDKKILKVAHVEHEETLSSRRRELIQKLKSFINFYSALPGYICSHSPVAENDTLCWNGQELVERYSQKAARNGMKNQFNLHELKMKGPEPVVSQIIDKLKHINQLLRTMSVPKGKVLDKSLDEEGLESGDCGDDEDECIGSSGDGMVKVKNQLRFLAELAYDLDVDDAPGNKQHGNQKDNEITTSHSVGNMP
- protocol-summary: ELISA, murine GPC3-his coated; antibody 0.0008 nM
Collected OD450 nm values appear next to each entry.

{"binder": "hAb001H1aL1a (antibody, human IgG1, V domains shown, Humanized F2.169.2, H1a+L1a) VH: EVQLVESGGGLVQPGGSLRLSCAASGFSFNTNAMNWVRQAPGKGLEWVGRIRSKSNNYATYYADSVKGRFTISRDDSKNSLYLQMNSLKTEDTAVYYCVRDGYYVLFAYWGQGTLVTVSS VL: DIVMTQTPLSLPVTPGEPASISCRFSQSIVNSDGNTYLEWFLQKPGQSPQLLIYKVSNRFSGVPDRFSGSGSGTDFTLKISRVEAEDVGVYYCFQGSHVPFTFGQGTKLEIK", "OD450 nm": 0.092}
{"binder": "hAb001H1aL1b (antibody, human IgG1, V domains shown, Humanized F2.169.2, H1a+L1b) VH: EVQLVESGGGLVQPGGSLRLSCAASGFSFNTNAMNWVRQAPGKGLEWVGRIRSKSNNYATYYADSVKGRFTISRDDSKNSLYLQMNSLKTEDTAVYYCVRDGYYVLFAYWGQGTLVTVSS VL: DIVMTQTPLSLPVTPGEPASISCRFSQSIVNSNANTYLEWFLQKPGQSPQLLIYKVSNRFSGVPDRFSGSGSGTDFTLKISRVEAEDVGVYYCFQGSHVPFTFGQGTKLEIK", "OD450 nm": 0.185}
{"binder": "hAb001H2L1a (antibody, human IgG1, V domains shown, Humanized F2.169.2, H2+L1a) VH: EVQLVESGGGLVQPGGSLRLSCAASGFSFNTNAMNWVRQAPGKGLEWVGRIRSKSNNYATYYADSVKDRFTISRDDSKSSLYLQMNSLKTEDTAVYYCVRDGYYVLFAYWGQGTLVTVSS VL: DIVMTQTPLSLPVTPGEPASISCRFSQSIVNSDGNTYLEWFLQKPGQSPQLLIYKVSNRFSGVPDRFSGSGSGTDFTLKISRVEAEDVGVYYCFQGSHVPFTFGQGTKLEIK", "OD450 nm": 0.094}
{"binder": "hAb001H1aL1 (antibody, human IgG1, V domains shown, Humanized F2.169.2, H1a+L1) VH: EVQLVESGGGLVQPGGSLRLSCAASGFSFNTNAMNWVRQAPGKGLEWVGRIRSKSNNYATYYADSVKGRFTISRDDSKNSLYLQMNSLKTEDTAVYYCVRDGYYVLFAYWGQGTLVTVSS VL: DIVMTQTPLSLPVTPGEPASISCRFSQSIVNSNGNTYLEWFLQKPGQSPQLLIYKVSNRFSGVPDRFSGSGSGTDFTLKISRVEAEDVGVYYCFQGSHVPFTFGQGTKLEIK", "OD450 nm": 0.255}
{"binder": "hAb001H1L1a (antibody, human IgG1, V domains shown, Humanized F2.169.2, H1+L1a) VH: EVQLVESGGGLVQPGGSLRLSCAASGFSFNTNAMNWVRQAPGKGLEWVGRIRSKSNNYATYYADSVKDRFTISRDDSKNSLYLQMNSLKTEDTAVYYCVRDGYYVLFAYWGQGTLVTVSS VL: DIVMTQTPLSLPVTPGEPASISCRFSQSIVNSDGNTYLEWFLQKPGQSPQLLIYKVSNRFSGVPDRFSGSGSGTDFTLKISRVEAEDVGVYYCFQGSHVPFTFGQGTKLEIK", "OD450 nm": 0.117}
